B1: TRIM55 (parent)
chain: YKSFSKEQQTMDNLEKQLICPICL

variants of: B1; test: protein stability index of a GFP-peptide fusion (GPS, HEK-293T) (PSI 1-6); higher = more stable; conditions: c terminus: a fixed tail appended;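 also: lentivirally expressed fusions sorted by FACS into six bins by GFP to DsRed ratio, PSI derived from sequencing read proportions per bin multiplied by bin number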
Below, each of the variants is paired with its reported protein stability index value.
READOUT LABEL: protein stability index

1. K16L = 1.68
2. K2A = 2.02
3. D12Y = 2.57
4. C20G = 2.52
5. S5P = 2.07
6. Q17K = 2.32
7. N13D = 2.77
8. I22C = 2.66
9. E15F = 2.1
10. I22L = 2.18
11. K6W = 2.51
12. S3A = 2.02
13. L14S = 2.8
14. D12N = 2.37
15. Q9V = 1.76
16. Y1F = 2.02
17. E7H = 2.36
18. D12T = 2.42
19. K6I = 1.85
20. C20N = 2.42
21. D12H = 1.93
22. D12W = 2.11
23. L14Q = 3.27
24. I22Q = 2.03
25. N13R = 1.79
26. K16I = 1.42
27. D12R = 1.93
28. E7N = 2.18
29. K2L = 2.52
30. M11I = 1.83
31. T10I = 1.65
32. I19N = 2.71
33. M11E = 2.69
34. L24W = 2.37
35. M11F = 2.24
36. L14I = 2.06
37. Q8Y = 2
38. D12L = 2.14
39. P21D = 1.07
40. I19G = 2.8
41. I19E = 3.01
42. Q9R = 2.5
